Assay: Plasma methadone concentrations by liquid chromatography/triple quadrupole mass spectrometry (Example I)
Settings: dog, in vivo, Mean plasma methadone concentration, methadone 1 mg/kg PO 24 h after starting fluconazole 5 mg/kg PO q 24 h; 12 hr
Readout Type: concentration at 12 h (ng/mL)
State just the number; it will be interpreted in ng/mL.

Q) Give the measured concentration at 12 h of CCC(=O)C(CC(C)N(C)C)(c1ccccc1)c1ccccc1 (racemic) [methadone] .
A) 15.3

====

Assay: Plasma methadone concentrations by liquid chromatography/triple quadrupole mass spectrometry (Example I)
Details: dog, in vivo, 1 mg/kg, Plasma methadone concentration, individual dogs, methadone alone 1 mg/kg PO; 12 hr; Dog 1-6
Readout Type: concentration at 12 h

Q) Which concentration at 12 h value is on record for CCC(=O)C(CC(C)N(C)C)(c1ccccc1)c1ccccc1 (racemic) ?
A) < 0.5 ng/mL

From: patent US11771662B2
